Test system: 2D hPSC-CM
assay-protocol: 2D hPSC-CM culture, Ki-67 image cytometry (proliferation, number, size)
Type: cell-based, human
study-conditions: 24 h, 0.5 M mevalonic acid 5-phosphate, 20 μM GGPP, 20 μM FPP, 20 μM squalene
Where a name gives a salt, the structure may show the parent alone.
property-name: rescue of proliferation under 10 μM simvastatin

> print(dat)
                                   compound        endpoint.result
1  CC(C)=CCC/C(C)=C/CC/C(C)=C/CC/C(C)=C/COP(=O)(O)OP(=O)(O)O [geranylgeranyl pyrophosphate]  rescued proliferation
2  CC(O)(CCOP(=O)(O)O)CC(=O)O (racemic) [mevalonate, lithium salt hydrate, reference compound]  rescued proliferation
3  CC(C)=CCC/C(C)=C/CC/C(C)=C/CC/C=C(\C)CC/C=C(\C)CCC=C(C)C [squalene]                    not
